Format: in vivo, C57BL/10 mice
setup_conditions: C57BL/10, mouse, plasma, intraperitoneal, 100 mg/kg
endpoint: concentration at 2 h (µM)
A number alone suffices; assume µM.

Would you mind telling me what concentration at 2 h value was observed for COC(=O)Nc1nc2ccc(C(=O)c3ccccc3)cc2[nH]1 ?
3.6
